Target: T1, recombinant hIL-6R protein, monomeric form (human, UniProt P08887 20-358)
T1 construct: also called monomeric hIL-6R; Human IL6R
T1 sequence: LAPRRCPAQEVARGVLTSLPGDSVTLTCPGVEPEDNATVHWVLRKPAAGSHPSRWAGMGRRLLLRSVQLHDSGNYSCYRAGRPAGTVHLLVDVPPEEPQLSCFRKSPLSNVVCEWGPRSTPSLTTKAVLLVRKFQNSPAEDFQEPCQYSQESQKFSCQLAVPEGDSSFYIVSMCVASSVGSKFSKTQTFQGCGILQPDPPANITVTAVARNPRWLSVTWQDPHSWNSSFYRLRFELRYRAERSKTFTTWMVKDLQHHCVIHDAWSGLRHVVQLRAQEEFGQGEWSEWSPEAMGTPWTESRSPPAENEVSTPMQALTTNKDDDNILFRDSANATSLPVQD
Assay: SPR (BIAcore), antibody captured on goat anti-human Fc, monomeric hIL-6R 1.56-12.5 nM
Reported property: koff (s⁻¹)
The figure you give is taken to be in s⁻¹; do not add the unit.

VQ1G4-21 hIgG1 (antibody, V domains shown, Human IgG1 constant region) VH: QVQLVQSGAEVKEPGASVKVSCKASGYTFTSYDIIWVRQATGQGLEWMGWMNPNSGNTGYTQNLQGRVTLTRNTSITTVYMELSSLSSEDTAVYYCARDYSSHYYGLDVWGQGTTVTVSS VL: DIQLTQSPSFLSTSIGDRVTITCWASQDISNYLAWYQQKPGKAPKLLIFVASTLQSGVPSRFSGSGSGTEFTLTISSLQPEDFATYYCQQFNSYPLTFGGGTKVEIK : 7.92e-05
VQ8F11-21 hIgG1 (antibody, V domains shown) VH: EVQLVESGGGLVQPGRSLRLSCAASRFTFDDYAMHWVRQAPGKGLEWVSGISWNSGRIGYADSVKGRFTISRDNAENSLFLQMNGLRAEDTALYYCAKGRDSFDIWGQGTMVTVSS VL: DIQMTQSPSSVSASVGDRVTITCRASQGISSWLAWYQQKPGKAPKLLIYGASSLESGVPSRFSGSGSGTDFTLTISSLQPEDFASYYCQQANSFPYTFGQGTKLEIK : 4.54e-05

Q: Supply koff value. Item: VQ8F11-21 hIgG4 (antibody, V domains shown, Human IgG4 (wild-type) constant region) VH: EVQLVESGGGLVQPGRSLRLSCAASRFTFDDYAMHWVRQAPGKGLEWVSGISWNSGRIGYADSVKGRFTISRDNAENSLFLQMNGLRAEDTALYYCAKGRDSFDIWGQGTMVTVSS VL: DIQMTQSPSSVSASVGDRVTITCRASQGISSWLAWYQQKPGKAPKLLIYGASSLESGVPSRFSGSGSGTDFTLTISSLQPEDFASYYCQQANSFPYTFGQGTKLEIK
Ans: 5.22e-05
